B1: TPR 5TU (parent)
chain: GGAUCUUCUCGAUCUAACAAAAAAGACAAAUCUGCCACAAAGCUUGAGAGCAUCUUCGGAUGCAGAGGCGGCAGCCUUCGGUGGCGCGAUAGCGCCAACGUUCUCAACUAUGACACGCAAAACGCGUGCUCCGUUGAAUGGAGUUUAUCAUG

Variants of: B1
Experiment: polymerase ribozyme fitness, log enrichment relative to wild type (log ratio); higher = more active; in vitro selection for triplet polymerase activity
Variants at the floor of the assay were thinned out.

{"residue_change": "C8U A21G A41C G50A G65C G88A", "measurement_qualifier": "≤", "polymerase ribozyme fitness (log ratio)": -4.2}
{"residue_change": "A22U U102G", "measurement_qualifier": "=", "polymerase ribozyme fitness (log ratio)": -2.64}
{"residue_change": "A49U G58C", "measurement_qualifier": "=", "polymerase ribozyme fitness (log ratio)": -0.846}
{"residue_change": "A17U A24U A39G C63G", "measurement_qualifier": "=", "polymerase ribozyme fitness (log ratio)": -4.15}
{"residue_change": "A20C U31G A49C A52C U53C", "measurement_qualifier": "≤", "polymerase ribozyme fitness (log ratio)": -4.2}
{"residue_change": "A17G G133U", "measurement_qualifier": "=", "polymerase ribozyme fitness (log ratio)": -3.47}
